Just for reference, patent US9271971B2 is where these values come from.

Target: rat adrenergic α1A receptor (Rattus norvegicus, UniProt P43140)
Construct: rat adrenergic α1A receptor obtained from Wistar Rat submaxillary glands; from tissue; host or cells: Wistar Rat submaxillary glands
Sequence (P43140 whole entry): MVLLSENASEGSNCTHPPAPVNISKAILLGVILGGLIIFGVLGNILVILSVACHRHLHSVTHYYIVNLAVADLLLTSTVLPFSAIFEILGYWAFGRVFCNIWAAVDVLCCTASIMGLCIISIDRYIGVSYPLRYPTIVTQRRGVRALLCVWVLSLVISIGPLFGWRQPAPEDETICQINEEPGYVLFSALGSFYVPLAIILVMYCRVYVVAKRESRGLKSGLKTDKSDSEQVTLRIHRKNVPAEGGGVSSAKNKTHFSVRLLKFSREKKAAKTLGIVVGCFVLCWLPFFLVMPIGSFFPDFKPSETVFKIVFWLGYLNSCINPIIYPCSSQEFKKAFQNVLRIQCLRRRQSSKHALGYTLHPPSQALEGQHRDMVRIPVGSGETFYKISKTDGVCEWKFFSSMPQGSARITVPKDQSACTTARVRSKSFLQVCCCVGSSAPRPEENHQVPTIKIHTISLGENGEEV
Experiment: Adrenergic α1A radioligand binding assay
Conditions: [3H]Prozosin specific binding, read-out: Percent Inhibition of ligand binding, Adrenergic (0.1 μM ligand conc.) α1A
value type: inhibition at 0.1 µM (%)

>>> numeric_readout("C/C(=C\\n1c2c(c3cc(C)ccc31)C1CCN(C2)C1)c1ccc(Cl)cc1Cl (stereo not drawn)")
3
>>> numeric_readout("Cc1ccc2c(c1)c1c(n2C(=O)Cc2ccc(Cl)cc2)CN2CCC1C2 (stereo not drawn)")
-18
>>> numeric_readout("C/C(=C\\n1c2c(c3cc(C)ccc31)C1CCN(C2)C1)c1ccc(Cl)cc1 (stereo not drawn)")
36
>>> numeric_readout("C/C(=C\\n1c2c(c3cc(C)ccc31)C1CCN(C2)C1)c1ccccc1F (stereo not drawn)")
14
>>> numeric_readout("COc1ccc(/C(C)=C/n2c3c(c4cc(C)ccc42)C2CCN(C3)C2)cc1 (stereo not drawn)")
24
>>> numeric_readout("C/C(=C\\n1c2c(c3cc(C)ccc31)C1CCN(C2)C1)c1ccncc1 (stereo not drawn)")
-7

* * *

Target: human recombinant adrenergic α2B receptor (Homo sapiens, UniProt P18089)
Construct: expressed in transfected cells; host or cells: Chinese hamster ovary (CHO-K1) cells
Sequence (P18089 whole entry): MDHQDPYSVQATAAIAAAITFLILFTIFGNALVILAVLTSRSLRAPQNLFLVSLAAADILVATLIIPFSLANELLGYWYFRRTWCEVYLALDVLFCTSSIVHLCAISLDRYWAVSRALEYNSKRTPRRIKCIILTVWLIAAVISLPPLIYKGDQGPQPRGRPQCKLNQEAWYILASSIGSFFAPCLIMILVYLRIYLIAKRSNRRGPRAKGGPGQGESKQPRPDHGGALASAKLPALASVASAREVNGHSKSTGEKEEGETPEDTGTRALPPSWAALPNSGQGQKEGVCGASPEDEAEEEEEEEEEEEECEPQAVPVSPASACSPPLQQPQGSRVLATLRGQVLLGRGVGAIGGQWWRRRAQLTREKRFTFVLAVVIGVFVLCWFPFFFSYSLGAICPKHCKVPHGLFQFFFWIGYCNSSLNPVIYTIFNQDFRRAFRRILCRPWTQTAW
Test: Adrenergic α2B radioligand binding assay
Settings: 1 μM; [3H]Rauwolscine specific binding; read-out: Percent Inhibition of ligand binding, Adrenergic (1 μM ligand conc.) α2B
Collected inhibition at 1 µM values appear next to each entry.
value type: inhibition at 1 µM

>>> result("Cc1ccc2c(c1)c1c(n2CC(=O)N(C)C)CN2CCC1C2 (stereo not drawn)")
"-15%"
>>> result("C=C(Cn1c2c(c3cc(C)ccc31)C1CCN(C2)C1)c1ccc(F)cc1 (stereo not drawn)")
"93%"
>>> result("Cc1ccc(C(O)Cn2c3c(c4cc(C)ccc42)C2CCN(C3)C2)cc1 (stereo not drawn)")
"78%"
>>> result("Cc1ccc2c(c1)c1c(n2CC(=O)N2CCOCC2)CN2CCC1C2 (stereo not drawn)")
"7%"
>>> result("Cc1ccc2c(c1)c1c(n2CC(O)c2ccc(F)cc2)CN2CCC1C2 (stereo not drawn)")
"79%"
>>> result("Cc1ccc2c(c1)c1c(n2CC(=O)N2CCC(C)CC2)CN2CCC1C2 (stereo not drawn)")
"-17%"
>>> result("Cc1ccc2c(c1)c1c(n2CC(C)(O)c2ccc(F)c(Cl)c2)CN2CCC1C2 (stereo not drawn)")
"107%"
>>> result("Cc1ccc2c(c1)c1c(n2CCc2ccc(C(F)(F)F)nc2)CN2CCC1C2 (stereo not drawn)")
"7%"
>>> result("COc1ccc(C(O)Cn2c3c(c4cc(C)ccc42)C2CCN(C3)C2)cc1F (stereo not drawn)")
"73%"
>>> result("Cc1ccc2c(c1)c1c(n2CCc2ccc(C)nc2)CN2CCC1C2 (stereo not drawn)")
"16%"
>>> result("Cc1ccc2c(c1)c1c(n2CC(C)(O)c2ccc(F)c(F)c2)CN2CCC1C2 (stereo not drawn)")
"106%"
>>> result("Cc1ccc(C(C)(O)Cn2c3c(c4cc(C)ccc42)C2CCN(C3)C2)cc1 (stereo not drawn)")
"97%"
>>> result("Cc1ccc2c(c1)c1c(n2CC(=O)NC2CCCCC2)CN2CCC1C2 (stereo not drawn)")
"-6%"
>>> result("Cc1ccc2c(c1)c1c(n2CC(=O)N2CCNCC2)CN2CCC1C2 (stereo not drawn)")
"-4%"
>>> result("Cc1ccc2c(c1)c1c(n2CCc2cncc(F)c2)CN2CCC1C2 (stereo not drawn)")
"45%"

* * *

Molecular target: human recombinant adrenergic α2A receptor (Homo sapiens)
Construct: expressed in transfected cells; host or cells: insect Sf9 cells
Sequence (P08913 whole entry): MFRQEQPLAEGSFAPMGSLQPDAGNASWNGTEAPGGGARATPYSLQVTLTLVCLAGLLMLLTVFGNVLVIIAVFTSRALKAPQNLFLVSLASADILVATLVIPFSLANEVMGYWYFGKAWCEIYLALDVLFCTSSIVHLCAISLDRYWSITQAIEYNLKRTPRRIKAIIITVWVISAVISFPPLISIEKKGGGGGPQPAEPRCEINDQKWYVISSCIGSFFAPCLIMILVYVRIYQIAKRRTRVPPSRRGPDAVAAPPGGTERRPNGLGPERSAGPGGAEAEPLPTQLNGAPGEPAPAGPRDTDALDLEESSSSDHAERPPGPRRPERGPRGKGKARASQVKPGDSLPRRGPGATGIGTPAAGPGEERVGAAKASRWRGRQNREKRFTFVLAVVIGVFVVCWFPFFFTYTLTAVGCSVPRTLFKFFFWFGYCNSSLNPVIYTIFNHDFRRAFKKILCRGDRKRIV
Assay: Adrenergic α2A radioligand binding assay
Conditions: 1 μM; [3H]MK-912 specific binding; read-out: Percent Inhibition of ligand binding, Adrenergic (1 μM ligand conc.) α2A
Collected inhibition at 1 µM values appear next to each entry.
value type: inhibition at 1 µM (%)

>>> numeric_readout("Cc1ccc2c(c1)c1c(n2CCc2ccc(C)nc2)CN2CCC1C2 (stereo not drawn)")
-4
>>> numeric_readout("Cc1ccc2c(c1)c1c(n2CC(=O)c2ccccc2)CN2CCC1C2 (stereo not drawn)")
5
>>> numeric_readout("COc1ccc(C(O)Cn2c3c(c4cc(C)ccc42)C2CCN(C3)C2)cc1OC (stereo not drawn)")
1
>>> numeric_readout("Cc1ccc2c(c1)c1c(n2CC(O)c2ccc(F)cc2)CN2CCC1C2 (stereo not drawn)")
41
>>> numeric_readout("Cc1ccc(C(O)Cn2c3c(c4cc(C)ccc42)C2CCN(C3)C2)cc1 (stereo not drawn)")
44
>>> numeric_readout("Cc1ccc2c(c1)c1c(n2CC(C)(O)c2ccc(F)c(F)c2)CN2CCC1C2 (stereo not drawn)")
21
>>> numeric_readout("Cc1ccc2c(c1)c1c(n2CC(=O)c2ccc(F)cc2)CN2CCC1C2 (stereo not drawn)")
86
>>> numeric_readout("Cc1ccc2c(c1)c1c(n2CC(C)(O)c2ccc(F)cc2F)CN2CCC1C2 (stereo not drawn)")
4
>>> numeric_readout("Cc1ccc2c(c1)c1c(n2CCc2ccc(C(F)(F)F)nc2)CN2CCC1C2 (stereo not drawn)")
25

* * *

Biological target: human recombinant serotonin (5-Hydroxytryptamine) 5-HT2C receptor (Homo sapiens)
Construct: expressed in transfected cells; host or cells: Chinese hamster ovary (CHO-K1) cells
Sequence (P28335 33-458): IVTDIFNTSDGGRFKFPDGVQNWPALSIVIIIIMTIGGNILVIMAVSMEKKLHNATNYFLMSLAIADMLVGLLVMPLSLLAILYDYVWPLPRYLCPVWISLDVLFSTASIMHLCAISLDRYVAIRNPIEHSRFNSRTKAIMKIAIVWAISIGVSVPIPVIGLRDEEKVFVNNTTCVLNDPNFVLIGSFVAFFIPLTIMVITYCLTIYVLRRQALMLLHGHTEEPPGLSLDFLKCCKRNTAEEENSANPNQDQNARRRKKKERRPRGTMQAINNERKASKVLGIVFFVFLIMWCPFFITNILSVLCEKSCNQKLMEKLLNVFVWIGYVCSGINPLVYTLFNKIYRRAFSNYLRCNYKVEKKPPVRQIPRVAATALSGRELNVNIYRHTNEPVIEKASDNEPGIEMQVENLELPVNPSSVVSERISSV
Test: Serotonin 5-HT2C radioligand binding assay
Conditions: [3H]Mesulergine specific binding, read-out: Percent Inhibition of ligand binding, Serotonin (1 μM ligand concentration) 5-HT2C
value type: inhibition at 1 µM (%)

>>> numeric_readout("C/C(=C\\n1c2c(c3cc(C)ccc31)C1CCN(C2)C1)c1ccc(Cl)cc1 (stereo not drawn)")
92
>>> numeric_readout("C/C(=C\\n1c2c(c3cc(C)ccc31)C1CCN(C2)C1)c1ccc(F)cc1 (stereo not drawn)")
96
>>> numeric_readout("C/C(=C\\n1c2c(c3cc(C)ccc31)C1CCN(C2)C1)c1cccnc1 (stereo not drawn)")
64
>>> numeric_readout("Cc1ccc2c(c1)c1c(n2C(=O)Cc2ccc(F)cc2)CN2CCC1C2 (stereo not drawn)")
66
>>> numeric_readout("Cc1ccc2c(c1)c1c(n2CCc2cncc(F)c2)CN2CCC1C2 (stereo not drawn)")
4
>>> numeric_readout("C/C(=C\\n1c2c(c3cc(C)ccc31)C1CCN(C2)C1)c1ccccc1F (stereo not drawn)")
93
>>> numeric_readout("Cc1ccc2c(c1)c1c(n2CC(C)(O)c2ccc(Cl)c(Cl)c2)CN2CCC1C2 (stereo not drawn)")
83
>>> numeric_readout("C/C(=C\\n1c2c(c3cc(C)ccc31)C1CCN(C2)C1)c1ccc(Cl)c(Cl)c1 (stereo not drawn)")
89
>>> numeric_readout("Cc1ccc2c(c1)c1c(n2CCc2ccc(C)nc2)CN2CCC1C2 (stereo not drawn)")
5

* * *

Biological target: human recombinant serotonin (5-Hydroxytryptamine) 5-HT2A receptor (Homo sapiens, UniProt P28223)
Construct: expressed in transfected cells; host or cells: Chinese hamster ovary (CHO-K1) cells
Sequence (P28223 whole entry): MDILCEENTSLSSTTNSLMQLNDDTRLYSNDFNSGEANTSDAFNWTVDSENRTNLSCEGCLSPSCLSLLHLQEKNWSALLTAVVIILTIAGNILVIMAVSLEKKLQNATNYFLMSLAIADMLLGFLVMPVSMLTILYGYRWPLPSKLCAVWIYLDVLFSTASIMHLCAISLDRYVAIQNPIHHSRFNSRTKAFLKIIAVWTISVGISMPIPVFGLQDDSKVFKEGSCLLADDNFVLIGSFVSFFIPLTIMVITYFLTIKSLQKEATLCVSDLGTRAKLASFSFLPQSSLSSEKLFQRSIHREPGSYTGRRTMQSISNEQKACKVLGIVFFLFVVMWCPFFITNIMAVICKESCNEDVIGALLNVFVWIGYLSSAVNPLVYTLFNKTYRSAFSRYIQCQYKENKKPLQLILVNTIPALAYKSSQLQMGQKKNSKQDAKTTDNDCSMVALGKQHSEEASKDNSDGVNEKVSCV
Assay: Serotonin 5-HT2A radioligand binding assay
Conditions: [3H]Ketanserin specific binding, read-out: Percent Inhibition of ligand binding, Serotonin (1 μM ligand concentration) 5-HT2A
Collected inhibition at 1 µM values appear next to each entry.
value type: inhibition at 1 µM

>>> result("C/C(=C/n1c2c(c3cc(C)ccc31)C1CCN(C2)C1)c1ccccc1F (stereo not drawn)")
"96%"
>>> result("Cc1ccc2c(c1)c1c(n2C#Cc2ccc(Cl)cc2)CN2CCC1C2 (stereo not drawn)")
"87%"
>>> result("C/C(=C\\n1c2c(c3cc(C)ccc31)C1CCN(C2)C1)c1ccc(F)cc1 (stereo not drawn)")
"97%"
>>> result("Cc1ccc2c(c1)c1c(n2CC(=O)c2ccc(F)cc2)CN2CCC1C2 (stereo not drawn)")
"61%"
>>> result("Cc1ccc2c(c1)c1c(n2CC(C)(O)c2ccc(Cl)c(Cl)c2)CN2CCC1C2 (stereo not drawn)")
"82%"
>>> result("Cc1ccc2c(c1)c1c(n2CC(C)(O)c2ccc(Cl)cc2Cl)CN2CCC1C2 (stereo not drawn)")
"61%"
>>> result("C/C(=C\\n1c2c(c3cc(C)ccc31)C1CCN(C2)C1)c1cccnc1 (stereo not drawn)")
"47%"
>>> result("Cc1ccc2c(c1)c1c(n2C(=O)Cc2ccc(F)cc2)CN2CCC1C2 (stereo not drawn)")
"48%"
>>> result("Cc1ccc2c(c1)c1c(n2CC(O)c2ccccc2)CN2CCC1C2 (stereo not drawn)")
"49%"
>>> result("Cc1ccc2c(c1)c1c(n2CC(=O)NC2CCCCC2)CN2CCC1C2 (stereo not drawn)")
"-4%"
>>> result("Cc1ccc2c(c1)c1c(n2CCc2ccccn2)CN2CCC1C2 (stereo not drawn)")
"10%"
>>> result("Cc1ccc2c(c1)c1c(n2CC(=O)N2CCC(C)CC2)CN2CCC1C2 (stereo not drawn)")
"2%"
>>> result("Cc1ccc2c(c1)c1c(n2CC(=O)N2CCCCC2)CN2CCC1C2 (stereo not drawn)")
"-3%"
>>> result("Cc1ccc2c(c1)c1c(n2CC(C)(O)c2ccc(F)c(F)c2)CN2CCC1C2 (stereo not drawn)")
"82%"
>>> result("Cc1ccc2c(c1)c1c(n2CCc2ccncc2)CN2CCC1C2 (stereo not drawn)")
"71%"
>>> result("C/C(=C\\n1c2c(c3cc(C)ccc31)C1CCN(C2)C1)c1ccc(Cl)cc1 (stereo not drawn)")
"86%"
>>> result("Cc1ccc2c(c1)c1c(n2CC(=O)N(C)C)CN2CCC1C2 (stereo not drawn)")
"-4%"
>>> result("Cc1ccc2c(c1)c1c(n2CCc2ccc(C(F)(F)F)nc2)CN2CCC1C2 (stereo not drawn)")
"18%"
>>> result("COc1ccc(/C(C)=C/n2c3c(c4cc(C)ccc42)C2CCN(C3)C2)cc1 (stereo not drawn)")
"98%"
>>> result("Cc1ccc2c(c1)c1c(n2CCc2cncc(F)c2)CN2CCC1C2 (stereo not drawn)")
"-6%"
>>> result("COc1ccc(/C(C)=C/n2c3c(c4cc(C)ccc42)C2CCN(C3)C2)cc1F (stereo not drawn)")
"92%"
>>> result("Cc1ccc(C(C)(O)Cn2c3c(c4cc(C)ccc42)C2CCN(C3)C2)cc1 (stereo not drawn)")
"102%"
>>> result("COc1ccc(C(O)Cn2c3c(c4cc(C)ccc42)C2CCN(C3)C2)cc1F (stereo not drawn)")
"45%"
>>> result("C/C(=C\\n1c2c(c3cc(C)ccc31)C1CCN(C2)C1)c1ccc(Cl)cc1Cl (stereo not drawn)")
"78%"
>>> result("COc1ccc(C(O)Cn2c3c(c4cc(C)ccc42)C2CCN(C3)C2)cc1OC (stereo not drawn)")
"25%"
>>> result("Cc1ccc2c(c1)c1c(n2CC(C)(O)c2ccc(Cl)cc2)CN2CCC1C2 (stereo not drawn)")
"92%"
>>> result("Cc1ccc2c(c1)c1c(n2C(=O)Cc2ccc(Cl)cc2)CN2CCC1C2 (stereo not drawn)")
"89%"
>>> result("Cc1ccc(C(O)Cn2c3c(c4cc(C)ccc42)C2CCN(C3)C2)cc1 (stereo not drawn)")
"81%"
>>> result("Cc1ccc2c(c1)c1c(n2CC(C)(O)c2ccc(F)cc2)CN2CCC1C2 (stereo not drawn)")
"76%"
>>> result("Cc1ccc2c(c1)c1c(n2CC(O)c2ccc(F)cc2)CN2CCC1C2 (stereo not drawn)")
"58%"
>>> result("Cc1ccc2c(c1)c1c(n2CCc2ccc(C)nc2)CN2CCC1C2 (stereo not drawn)")
"17%"
>>> result("Cc1ccc2c(c1)c1c(n2CC(C)(O)c2ccc(F)cc2F)CN2CCC1C2 (stereo not drawn)")
"81%"
>>> result("C=C(Cn1c2c(c3cc(C)ccc31)C1CCN(C2)C1)c1ccc(F)cc1 (stereo not drawn)")
"94%"
>>> result("C/C(=C\\n1c2c(c3cc(C)ccc31)C1CCN(C2)C1)c1ccncc1 (stereo not drawn)")
"67%"
>>> result("C/C(=C\\n1c2c(c3cc(C)ccc31)C1CCN(C2)C1)c1ccc(Cl)c(Cl)c1 (stereo not drawn)")
"94%"
>>> result("Cc1ccc2c(c1)c1c(n2CC(=O)c2ccc(Cl)cc2)CN2CCC1C2 (stereo not drawn)")
"56%"
